Cited source: PubChem BioAssay AID256

# Tested on: CD2F1 mice, L1210 leukemia ip, survival T/C
# Assay Procedure: NCI In Vivo Anticancer Drug Screen. Data for tumor model L1210 Leukemia (intraperitoneal) in CD2F1 (CDF1) mice
# Condition Description: endpoint: mean survival time; dose: 100.0 mg/kg/injection; schedule: Q04DX003 (ip); vehicle: saline; higher = longer survival
Inconclusive results and toxic doses are left out.
The entries below are paired with their reported T/C.

>  <Compound Structure String>
O=[N+]([O-])c1ccc2c(c1)Cc1cc(N(CBr)CBr)ccc1-2

>  <T/C>
109 % of control

$$$$
>  <Compound Structure String>
CCCN(CCC)CC(=O)c1ccc2cc(Br)c3ccccc3c2c1

>  <T/C>
92 % of control

$$$$
>  <Compound Structure String>
c1cc[n+](C[n+]2ccccc2)cc1

>  <T/C>
96 % of control

$$$$
>  <Compound Structure String>
CCN(CC)CCNCc1c[nH]c(=S)[nH]c1=O

>  <T/C>
103 % of control

$$$$

###

# Tested on: CD2F1 mice, L1210 leukemia ip, survival T/C
# Assay Procedure: NCI In Vivo Anticancer Drug Screen. Data for tumor model L1210 Leukemia (intraperitoneal) in CD2F1 (CDF1) mice
# Condition Description: endpoint: mean survival time; dose: 75.0 mg/kg/injection; schedule: Q01DX001 (ip); vehicle: other; higher = longer survival
Toxic doses and inconclusive results are not listed.
The entries below are paired with their reported T/C.
Attribute Measured: T/C

>  <Compound Structure String>
CN(C)CCP(c1ccccc1)c1ccccc1

>  <Result>
102 % of control

$$$$
>  <Compound Structure String>
O=C1C2=Cc3ccccc3CN2Cc2ccccc21

>  <Result>
98 % of control

$$$$
>  <Compound Structure String>
CCCCCCCCCCCCC(=O)O.[Pb]

>  <Result>
107 % of control

$$$$
>  <Compound Structure String>
Cc1[nH]nc(C(N)=O)c1N=NN1CCOCC1

>  <Result>
101 % of control

$$$$
>  <Compound Structure String>
COc1ccc2c(O)c3[n+](cc2c1OC)CCc1cc2c(cc1-3)OCO2

>  <Result>
100 % of control

$$$$

###

The entries below are paired with their reported T/C.
# System: CD2F1 mice, L1210 leukemia ip, survival T/C
# Assay Procedure: NCI In Vivo Anticancer Drug Screen. Data for tumor model L1210 Leukemia (intraperitoneal) in CD2F1 (CDF1) mice
# Condition Description: endpoint: mean survival time; dose: 50.0 mg/kg/injection; schedule: Q01DX009 (ip); vehicle: Klucel (hydroxypropylcellulose) (HPC); higher = longer survival
Toxic doses and inconclusive results are not listed.

>  <Molecule>
O=Cc1cccc(OCc2ccc([N+](=O)[O-])cc2)c1

>  <T/C>
105 % of control

$$$$
>  <Molecule>
O=Nn1c2ccccc2c2ccccc21

>  <T/C>
90 % of control

$$$$
>  <Molecule>
Nc1nc(N)c(-c2ccc(Cl)c(Cl)c2)c(CP(Cl)(Cl)(Cl)Br)n1

>  <T/C>
102 % of control

$$$$
>  <Molecule>
O=C(/C=C(\CN1CCCCC1)c1ccccc1)c1ccccc1

>  <T/C>
105 % of control

$$$$
>  <Molecule>
Cc1nnc(NS(=O)(=O)c2ccc(N=Nc3nc4[nH]c(N)nc(=S)c4[nH]3)cc2)s1

>  <T/C>
122 % of control

$$$$
>  <Molecule>
Cc1sc2ccccc2[n+]1C

>  <T/C>
87 % of control

$$$$
>  <Molecule>
N#CCCCN1C(=O)c2ccccc2C1=O

>  <T/C>
99 % of control

$$$$
>  <Molecule>
O=c1c2ccccc2sc2c1ccc1c2ccc2c(=O)c3ccccc3sc21

>  <T/C>
104 % of control

$$$$
>  <Molecule>
CC1(C)N=C(N)N=C(N)N1c1ccc(C(C#N)CCCc2ccccc2)cc1 (centres undefined)

>  <T/C>
101 % of control

$$$$
